Source of measurements: the supplement of paper PMC4858399

- Test system: Caenorhabditis elegans N2
- assay_info: mean nematode size ln(EXT) after 48 h, plate-adjusted (DMSO control set to 6) (ln(EXT), control-adjusted); higher = larger nematodes / less growth inhibition
- condition_description: 5 µM; exposure time 48 h
Examples of compounds with documented mean nematode size ln(EXT) (ln) follow.
readout_name: mean nematode size ln(EXT) (ln)

[[record]]
compound = "CC(C)N1C(=O)N(c2ccccc2)CS/C1=N\\C(C)(C)C"
target_under_test = "Caenorhabditis elegans N2"
recorded_result = 5.68

[[record]]
compound = "NCC1(Cc2noc(=O)[nH]2)CCCCC1"
target_under_test = "Caenorhabditis elegans N2"
recorded_result = 5.76

[[record]]
compound = "CC(=O)Nc1ccc(O)cc1"
target_under_test = "Caenorhabditis elegans N2"
recorded_result = 6.04

[[record]]
compound = "Nc1nc(=S)c2[nH]cnc2[nH]1"
target_under_test = "Caenorhabditis elegans N2"
recorded_result = 5.86

[[record]]
compound = "CNC(=O)Oc1cccc2c1OC(C)(C)O2"
target_under_test = "Caenorhabditis elegans N2"
recorded_result = 5.8

[[record]]
compound = "COCCO"
target_under_test = "Caenorhabditis elegans N2"
recorded_result = 6.08

[[record]]
compound = "NNC(=O)c1ccncc1"
target_under_test = "Caenorhabditis elegans N2"
recorded_result = 5.77

[[record]]
compound = "c1ccc2cc3c(ccc4ccccc43)cc2c1 [Benz[a]anthracene]"
target_under_test = "Caenorhabditis elegans N2"
recorded_result = 5.22

[[record]]
compound = "CC(Oc1ccc(Cl)cc1Cl)C(=O)O (stereo not given)"
target_under_test = "Caenorhabditis elegans N2"
recorded_result = 5.86

[[record]]
compound = "CCCCCCCCCCCCN1CCCC1=O"
target_under_test = "Caenorhabditis elegans N2"
recorded_result = 5.45

[[record]]
compound = "OC(c1ccc(Cl)cc1)(c1cncnc1)c1ccccc1Cl (stereo not given)"
target_under_test = "Caenorhabditis elegans N2"
recorded_result = 6.07

[[record]]
compound = "CCCCOCN(C(=O)CCl)c1c(CC)cccc1CC"
target_under_test = "Caenorhabditis elegans N2"
recorded_result = 6.07

[[record]]
compound = "O=C(O)Cn1c(=O)n(Cc2ccc(Br)cc2F)c(=O)c2ccc(Cl)cc21"
target_under_test = "Caenorhabditis elegans N2"
recorded_result = 5.84

[[record]]
compound = "CC1(C)C(=O)NC(=O)N1CO [1-(Hydroxymethyl)-5,5-dimethylhydantoin]"
target_under_test = "Caenorhabditis elegans N2"
recorded_result = 5.96

[[record]]
compound = "CC1=C(/C=C/C(C)=C/C=C/C(C)=C/C(=O)O)C(C)(C)CCC1"
target_under_test = "Caenorhabditis elegans N2"
recorded_result = 5.8

[[record]]
compound = "CN(C)c1ccc(Cc2ccc(N(C)C)cc2)cc1"
target_under_test = "Caenorhabditis elegans N2"
recorded_result = 5.81

[[record]]
compound = "Nc1cc2c3c(c1)C(c1ccccc1)=N[C@@H](NC(=O)c1cccnc1)C(=O)N3CC2"
target_under_test = "Caenorhabditis elegans N2"
recorded_result = 5.7

[[record]]
compound = "COc1ccc(C(=CC(=O)N2CCOCC2)c2ccc(Cl)cc2)cc1OC"
target_under_test = "Caenorhabditis elegans N2"
recorded_result = 6.05

[[record]]
compound = "COCC(=O)N(c1c(C)cccc1C)C(C)C(=O)OC (stereo not given) [Metalaxyl]"
target_under_test = "Caenorhabditis elegans N2"
recorded_result = 6.16

[[record]]
compound = "Oc1ccc2ccc3cccc4ccc1c2c34 [1-Hydroxypyrene]"
target_under_test = "Caenorhabditis elegans N2"
recorded_result = 5.84

[[record]]
compound = "CCNc1nc(Cl)nc(NC(C)C)n1"
target_under_test = "Caenorhabditis elegans N2"
recorded_result = 5.73

[[record]]
compound = "O=Cc1ccccc1C=O"
target_under_test = "Caenorhabditis elegans N2"
recorded_result = 5.82

[[record]]
compound = "C[C@]12C=CC(=O)C=C1CC[C@@H]1[C@@H]2C(=O)C[C@@]2(C)[C@H]1CC[C@]2(O)C(=O)CO"
target_under_test = "Caenorhabditis elegans N2"
recorded_result = 5.85

[[record]]
compound = "O=C(O)c1nc(Cl)ccc1Cl [Clopyralid]"
target_under_test = "Caenorhabditis elegans N2"
recorded_result = 5.75

[[record]]
compound = "CCCCOC(=O)C(C)Oc1ccc(Oc2ccc(C(F)(F)F)cn2)cc1 (stereo not given)"
target_under_test = "Caenorhabditis elegans N2"
recorded_result = 6.11

[[record]]
compound = "Cc1ccc(C)c(C)c1"
target_under_test = "Caenorhabditis elegans N2"
recorded_result = 5.88

[[record]]
compound = "CCCCCCCCCCO"
target_under_test = "Caenorhabditis elegans N2"
recorded_result = 5.83

[[record]]
compound = "O=C(OCCOCCOC(=O)c1ccccc1)c1ccccc1 [Di(ethylene glycol) dibenzoate]"
target_under_test = "Caenorhabditis elegans N2"
recorded_result = 5.77

[[record]]
compound = "CNC(=O)Oc1cccc2c1OC(C)(C)C2"
target_under_test = "Caenorhabditis elegans N2"
recorded_result = 5.84

[[record]]
compound = "O=C(O)C(O)C(O)C(=O)O (stereo not given)"
target_under_test = "Caenorhabditis elegans N2"
recorded_result = 5.79

